- ASSAY_COMMENT: Solubility testing (visual inspection, centrifugation, microscopy)
- TEST_CONTEXT: DMSO, organic solvent or mixture, thermodynamic from solid, Solubility in DMSO, Lab 3, DMSO, Lab 3, highest tested 50 mg/ml
Parameter solubility: see the listing below.
MEASUREMENT_KIND: solubility

>>> result("CC(O)(CS(=O)(=O)c1ccc(F)cc1)C(=O)Nc1ccc(C#N)c(C(F)(F)F)c1 (stereo not drawn) [Bicalutamide]")
"> 50 mg/mL"
>>> result("CC(=O)S[C@@H]1CC2=CC(=O)CC[C@]2(C)[C@H]2CC[C@@]3(C)[C@@H](CC[C@@]34CCC(=O)O4)[C@H]12")
"> 50 mg/mL"
>>> result("CC(=O)O[C@]1(C(C)=O)CC[C@H]2[C@@H]3C[C@H](C)C4=CC(=O)CC[C@]4(C)[C@H]3CC[C@@]21C [Medroxyprogesterone acetate]")
"15 mg/mL"
